The measured values listed here are drawn from patent US10759826B2.

# ASSAYED_TARGET: androgen receptor (AR) (Homo sapiens, UniProt P10275)
# Sequence (P10275 1-920): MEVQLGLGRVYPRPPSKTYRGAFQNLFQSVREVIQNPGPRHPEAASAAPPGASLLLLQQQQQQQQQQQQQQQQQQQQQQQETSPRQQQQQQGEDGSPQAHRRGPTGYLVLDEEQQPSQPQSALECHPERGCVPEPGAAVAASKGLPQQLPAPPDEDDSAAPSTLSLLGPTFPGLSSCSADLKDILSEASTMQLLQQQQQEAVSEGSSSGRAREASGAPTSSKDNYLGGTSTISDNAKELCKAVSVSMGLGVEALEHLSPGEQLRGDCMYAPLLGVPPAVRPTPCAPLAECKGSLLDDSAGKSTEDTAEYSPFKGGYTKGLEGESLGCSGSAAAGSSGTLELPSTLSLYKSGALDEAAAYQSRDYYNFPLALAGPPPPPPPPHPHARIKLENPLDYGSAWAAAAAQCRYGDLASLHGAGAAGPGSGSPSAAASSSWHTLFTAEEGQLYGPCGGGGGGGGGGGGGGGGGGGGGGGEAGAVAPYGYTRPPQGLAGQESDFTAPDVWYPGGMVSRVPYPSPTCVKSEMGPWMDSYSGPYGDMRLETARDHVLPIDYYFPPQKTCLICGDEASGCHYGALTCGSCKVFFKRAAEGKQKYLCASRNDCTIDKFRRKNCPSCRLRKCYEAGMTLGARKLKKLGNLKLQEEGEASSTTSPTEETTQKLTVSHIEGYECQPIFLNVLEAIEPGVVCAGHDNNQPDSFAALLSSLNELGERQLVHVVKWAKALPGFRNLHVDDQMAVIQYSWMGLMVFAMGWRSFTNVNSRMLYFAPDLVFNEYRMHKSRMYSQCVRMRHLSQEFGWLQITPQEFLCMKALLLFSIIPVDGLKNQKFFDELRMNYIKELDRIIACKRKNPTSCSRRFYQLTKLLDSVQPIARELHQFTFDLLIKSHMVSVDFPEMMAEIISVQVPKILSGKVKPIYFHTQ
# TEST_NAME: AR luciferase reporter assay in U2OS cells
# DETAILS: antagonist mode, 1 nmol·l^−1 DHT
pIC50: −log10 of the molar value.
EXPERIMENTAL_READOUT: pIC50

QUERY_SMILES	ASSAYED_TARGET	EXPERIMENTAL_READOUT	VALUE_OBSERVED
CCOc1ccc(CC[C@@H]2CC(=O)[C@@]3(C)CC[C@@H]4c5ccc(O)cc5CC[C@H]4[C@H]23)cc1	androgen receptor (AR) (Homo sapiens, UniProt P10275)	pIC50	4.05
